Source listed as BindingDB's records for doi:10.1038/sj.bjp.0702658.

molecular target: UniProtKB P49286
Sequence (P49286 whole entry): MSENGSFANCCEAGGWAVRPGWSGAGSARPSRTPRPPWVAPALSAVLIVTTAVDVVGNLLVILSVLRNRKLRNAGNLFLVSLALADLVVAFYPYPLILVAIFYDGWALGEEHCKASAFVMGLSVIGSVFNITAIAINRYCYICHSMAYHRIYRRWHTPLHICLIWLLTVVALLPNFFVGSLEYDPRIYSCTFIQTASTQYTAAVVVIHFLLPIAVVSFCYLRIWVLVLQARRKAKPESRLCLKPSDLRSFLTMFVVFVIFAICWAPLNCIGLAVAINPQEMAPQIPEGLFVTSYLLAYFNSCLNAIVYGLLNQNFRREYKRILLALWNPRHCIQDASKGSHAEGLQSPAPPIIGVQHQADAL
pKi: −log10 of the molar value.
recordedMetric: pKi

# compound, recordedMetric, valueMeasured
rows = [
    ("COc1ccc2[nH]c(-c3ccccc3)c(CCNC(C)=O)c2c1", "pKi", 10.52),
    ("CC(=O)NCCc1c[nH]c2ccccc12", "pKi", 7.19),
    ("CC(=O)NCCc1c[nH]c2ccc(O)cc12 [N-Acetyltryptamine,5-Hydroxy]", "pKi", 6.47),
]
